Kindly state TGI for each of the entries shown.
# Test system: TK-10 renal
# procedure summary: NCI tumour cell line growth inhibition, 48 h

**Q:** Entry under review: C=CC(=O)Nc1cc(N2CCN(CC)CC2)ccc1Nc1cc(N(C)C(=O)Nc2c(Cl)c(OC)cc(OC)c2Cl)ncn1 . Reported TGI?
**A:** 26 µM

**Q:** COc1ccc(C(=O)CC(c2ccccc2)[C@H]2C(c3ccc(OC)cc3)=Nc3c(nc(SC)n(C)c3=O)NC2c2ccccc2)cc1 (stereo not given in full) ?
**A:** > 100 µM

**Q:** O=C(Oc1ccc(CO[N+](=O)[O-])cc1)c1ccccc1 ?
**A:** 0.334 µM

**Q:** O=C1C=CC(=O)c2c(O)c(NCCOCCO)c(Cl)c(O)c21 ?
**A:** 26.6 µM

**Q:** CSCCCNC(=O)c1ccc2c(c1)/C(=C/c1[nH]c(C)cc1C)C(=O)N2 ?
**A:** > 100 µM

###

# System: KM12 colon
# procedure summary: NCI tumour cell line growth inhibition, 48 h
Kindly state TGI for each of the entries shown.

**Q:** Request: TGI, test system KM12 colon, entry O=c1[nH]n(Cc2ccccc2)c2ccc([N+](=O)[O-])cc12
**A:** > 100 µM

**Q:** C=CCC1=C(C)C[C@@H]2CCC(=O)C=C12 ?
**A:** > 100 µM

**Q:** O=C1c2c(O)cccc2-c2nn(CCNCCO)c3ccc(NCCNCCO)c1c23 ?
**A:** 7.73 µM

**Q:** Cc1nc(Nc2ccccn2)sc1C(=O)/C=C/c1ccc(Cl)cc1 ?
**A:** 15.9 µM

**Q:** O=C1/C(=C/c2ccccc2)CN(C(=O)CCN2CCCC2)C/C1=C\c1ccccc1 ?
**A:** 1.82 µM

**Q:** O=C1C=CC(=O)c2c(O)c(NCCOCCO)c(Cl)c(O)c21 ?
**A:** 15.1 µM

**Q:** COc1cc(NC(=O)CCSc2nc3ccc(C)cc3c(=O)n2Cc2ccccc2)cc(OC)c1OC ?
**A:** > 100 µM

**Q:** CCN(c1cc(-c2ccc(CN3CCOCC3)cc2)cc(C(=O)NCc2c(C)cc(C)[nH]c2=O)c1C)C1CCOCC1 ?
**A:** 52 µM

**Q:** CC1(C)CC2(CC(C)(C)N1O)NC(=O)OC2=O ?
**A:** > 100 µM

**Q:** O=c1[nH]c2nc(NC3CCOCC3)ncc2cc1Oc1ccc(F)cc1F ?
**A:** > 25 µM

**Q:** O=C(O)c1ccccc1N=Cc1ccc(N(CCCl)CCCl)cc1 ?
**A:** > 100 µM

**Q:** COc1cccc(N=N/C(=N\NC(=O)c2ccc(C)cc2)c2ccc(N(CCC#N)CCC#N)cc2C)c1 ?
**A:** > 100 µM

**Q:** C=C(C)[C@H]1C2=CC(C)=C(O2)[C@@H](O[C@@H]2c3oc(cc3C)[C@H](C(=C)C)[C@H]3C=C(CC[C@H]2C(=C)C)C(=O)O3)[C@H](C(=C)C)CCC2=C[C@H]1OC2=O ?
**A:** > 100 µM

**Q:** CC(=O)Nc1ccc(OC/C(N)=N/NC(=O)c2ccncc2)cc1 ?
**A:** > 100 µM

**Q:** CCc1cc2c(c3c1CCCC3=O)CC1(Cc3ccc(C(=O)OC)cc3C1)C2 (centres undefined) ?
**A:** > 100 µM

**Q:** O=C(Oc1ccc(CO[N+](=O)[O-])cc1)c1ccccc1 ?
**A:** 0.33 µM

**Q:** COc1ccc(CCn2c(=O)c3ccccc3n(C)c2=O)cc1 ?
**A:** > 100 µM

**Q:** CN1CCc2c1nc(-c1ccc(Cl)cc1)c1c2N(C)CC1 ?
**A:** 45.7 µM

**Q:** c1ccc(CN2CCC(Nc3ccccc3)(c3nnnn3Cc3ccccc3)CC2)cc1 ?
**A:** 33.3 µM

**Q:** O=C([O][Sn]([O]C(=O)c1ccccn1)([c]1ccccc1)[c]1ccccc1)c1ccccn1 ?
**A:** 25.9 µM

**Q:** CCOC(=O)c1cc(C)nc2c1c(=O)n(-c1ccccc1)c(=O)n2CCCCN1CCN(c2ccccc2)CC1 ?
**A:** > 100 µM

**Q:** CC(Oc1ccccc1Cl)C(=O)NN1C(=O)CSC1c1ccccc1 (centres undefined) ?
**A:** > 100 µM

**Q:** C1CC2CN(CCCN3CCOCC3)C(C1)O2 (centres undefined) ?
**A:** > 100 µM

**Q:** c1ccc(/C(=N/Nc2ccncn2)c2ccccn2)cc1 ?
**A:** 93 µM

**Q:** CN(C)c1nc2ccccc2c2c1c1c(n2Cc2ccccc2)-c2ccccc2C1=O ?
**A:** > 100 µM

**Q:** Cc1ccccc1-c1nc2c(C(=O)NCCN(C)C)cccc2[nH]1 ?
**A:** > 100 µM

**Q:** O=C(Nn1c(-c2ccccc2)nc2ccccc2c1=O)c1ccccc1O ?
**A:** > 100 µM

**Q:** CCCCCCCCCCCCCCCCCCNc1nc(=O)n(C2CC(O)C(COP(=O)(O)O)O2)cc1F (centres undefined) ?
**A:** > 100 µM

**Q:** O=C(c1ccccc1)c1c(NCC(O)CN2CCOCC2)n(Cc2ccccc2)c(=O)n(Cc2ccccc2)c1=O (centres undefined) ?
**A:** > 100 µM

**Q:** CCN(CC)C(=S)SS(=O)(=O)c1cccc(N)c1 ?
**A:** > 100 µM

**Q:** Nc1nc(Cl)cc(NC23CC4CC(CC(C4)C2)C3)n1 ?
**A:** > 100 µM

**Q:** c1ccc(-c2nc(N3CCOCC3)c3c4c(sc3n2)CCCCCC4)nc1 ?
**A:** 16.1 µM

**Q:** COc1cc(C2C3=C(COC3=O)Oc3cc4c(cc32)OCO4)cc(OC)c1O (centres undefined) ?
**A:** > 100 µM

**Q:** CCCSc1ccc2[nH]c(N3C(=O)/C(=C/c4ccccc4)N=C3c3ccccc3)cc2c1 ?
**A:** > 50 µM

###

# Tested on: T-47D breast
# procedure summary: NCI tumour cell line growth inhibition, 48 h
Kindly state TGI for each of the entries shown.

**Q:** Request: TGI, test system T-47D breast, entry Cc1nn(-c2ccccc2)c(C)c1/C=N/N=C1\S/C(=C\c2ccc(Cl)cc2)C(=O)N1c1ccccc1
**A:** > 100 µM

**Q:** COc1cc(C)c(C2NC(=O)c3ccccc3N2)cc1C (stereo not given) ?
**A:** > 100 µM

**Q:** C/C(=N\Nc1nc2cc(C(F)(F)F)ccc2s1)c1ccccn1 ?
**A:** 15.4 µM

**Q:** CN(C)CCCNc1ccc2nnn3c4ccc(O)cc4c(=O)c1c23 ?
**A:** 40.9 µM

**Q:** COc1ccc(C(=O)CC(c2ccccc2)[C@H]2C(c3ccc(OC)cc3)=Nc3c(nc(SC)n(C)c3=O)NC2c2ccccc2)cc1 (stereo not given in full) ?
**A:** > 100 µM

**Q:** Cc1nnc2n1N=C(c1ccc(Cl)cc1Cl)/C(=C/c1ccc(-c3ccc([N+](=O)[O-])cc3Cl)o1)S2 ?
**A:** > 100 µM

**Q:** C#Cc1nc2ccccc2c(=O)[nH]1 ?
**A:** 3.6 µM

**Q:** c1ccc2c(c1)SCCCSCCSCCCS2 ?
**A:** > 100 µM

**Q:** c1ccc(-c2nc(N3CCOCC3)c3c4c(sc3n2)CCCCCC4)nc1 ?
**A:** 22.7 µM

**Q:** Cc1ccc(N=Nc2c(O)ccc3ccccc23)cc1 ?
**A:** > 100 µM

###

# Test system: HT29 colon
# procedure summary: NCI tumour cell line growth inhibition, 48 h
measurement name: TGI (µM)
Kindly provide the numeric value in µM only, without the unit symbol.

**Q:** Entry under review: O=C(Oc1ccc(CO[N+](=O)[O-])cc1)c1ccccc1 . Reported TGI?
**A:** 0.27

**Q:** O=C(c1cccs1)N1CCN(C(=O)c2cccs2)C1=S ?
**A:** 21

**Q:** C/C(=N\Nc1nc2cc(C(F)(F)F)ccc2s1)c1ccccn1 ?
**A:** 1.81

**Q:** C=CC(=O)Nc1cc(N2CCN(CC)CC2)ccc1Nc1cc(N(C)C(=O)Nc2c(Cl)c(OC)cc(OC)c2Cl)ncn1 ?
**A:** 5.29

###

Kindly state GI50 for each of the entries shown.
# System: TK-10 renal
# procedure summary: NCI tumour cell line growth inhibition, 48 h

**Q:** Entry under review: Cc1ccc(S(=O)(=O)c2nc(-c3ccccc3)oc2S(C)=O)cc1 (centres undefined) . Reported GI50?
**A:** 1450 nM

**Q:** Cc1nc(Nc2cccnc2)sc1C(=O)/C=C/c1ccc(Cl)cc1 ?
**A:** 3530 nM

**Q:** O=C1CCC(N2C(=O)c3ccccc3C2=O)C(=O)N1 (centres undefined) ?
**A:** > 100000 nM

**Q:** CCN=C1C=CC(=C(c2ccc(N(CC)CC)cc2)c2ccc(N(CC)CC)cc2)c2ccccc21 ?
**A:** 42.2 nM

Hey, just so you know, these numbers are from PubChem BioAssay (NCI).
